Below, each entry is listed with its recorded pKd.
Biological target: RSV prefusion F (preF), DS-Cav1 (Respiratory Syncytial Virus)
Test: BLI, IgG on anti-human IgG sensor, 100 nM antigen
pKd: −log10 of the molar value.
quantity_name: pKd

binder="ADI-41202 (antibody, V domains shown) VH: QVQLVESGAEVKKPGSSVKISCKASGGTFSSHPISWVRQAPGQGLEWMGRIVPIFGIANYAQKFQGRVTMIADKSTNTAYMELSNLRSEDTAVYYCASPVYDSSGFQWGQGTLVTVSS VL: QSALIQPRSVSGSPGQSVTISCTGTSGDGGFYNYVSWYQQHPGKTPKLMIYDVDQRPSGVPDRFSGSKSGNTASLTISGLQAEDEADYYCCSYPGNPLYVFGTGTKLTVL" assay_value=8.95
binder="ADI-41207 (antibody, V domains shown) VH: QVQLVQSGPALVKPTQTLTLTCTFSGFSLSTKGMCVSWIRQPPGKALEWLALIDWDDDKFYSTSLKTRLTISKDTSKNQVVLTMTNMDPVDTATYYCARTLYFYGSGSLSDYCFDYWGQGTPVTVSS VL: QPVLTQPRSVSGSPGQSVTISCTGTSRDVGNYNFVSWYQQHPGKAPKLIIYDVTKRPSGVPDRFSGSKSGNTASLTISGLQAEDEADYYCCSYAGTYTWVFGGGTKVTVL" assay_value=8.60
binder="ADI-41161 (antibody, V domains shown) VH: EVQLVESGGGLVQPGGSLRLSCAASGFTFSTFEFNWVRQAPGKGLEWLSYISSDDTTRYYADSVKGRFTISRDNAKNSLYLQMNSLRAEDTAYYYCVRGGPYDYVWGTYRYFDFWGQGTLVTVSS VL: QSVLTQPASVSGSPGQSITISCTGTSSDIGGYNYVSWYQQHPGKAPKLMIYDVTNRPLGVSNRFSGSKSGNTASLIISGLQAEDEAEYYCCSYTSSNSLVFGGGTKLTVL" assay_value=8.60
binder="ADI-41184 (antibody, V domains shown) VH: EVQLLETGGGLVQPGGSLRLSCAASGFTFSSYDMNWVRQAPGKGLEWVSTISGSGGPTYYAGSVKGRFTISRDNSKNTLYLQMNSLRADDTAVYYCAKAQLYDTSGYYLYYFDYWGQGTLVTVSS VL: DIRMTQSPSSLSASVGDRVTITCRASQRITSYLNWYQQKPGKAPKLLIYAASSLQSGVPSRFSGSGSGTDFTLTISSLQPEDFATYFCQQSYSTSFTFGPGTKVDIK" assay_value=8.55
binder="ADI-41170 (antibody, V domains shown) VH: EVQLLESGGGLIQPGGSLRLSCAASGFTFNNYVMSWVRQAPGKGLEWVAAISSSGVSTYYAASVKGRFTISRDNSKNMLYVQLNSLRAEDTAVYYCAKETGSYYYFDSWGQGTLVTVSS VL: ETTLTQSPSTLSGSVGDRVTITCRASESISSWLAWYQQKPGKAPKLLIYKASNLESGVPSRFSGSGSGTEFTLTISSLQPDDFATYYCQQYNSYLITFGQGTRLEIK" assay_value=8.25
